# experimental setup: in isobutanol, 313.15 K
assay endpoint: solubility (mole fraction)

Query: # solubility (mole fraction) lookup, item Cc1c(OCC(F)(F)F)ccnc1CS(=O)c1nc2ccccc2[nH]1 (stereo unspecified)
Reply: 0.0179

---

# experimental setup: in n-propyl acetate, 318.15 K
assay endpoint: solubility (mole fraction)
The answer should be a number; do not append a unit.

Query: Which measured solubility (mole fraction) value corresponds to Cc1c(OCC(F)(F)F)ccnc1CS(=O)c1nc2ccccc2[nH]1 (stereo unspecified) ?
Reply: 0.0127

---

# experimental setup: in acetone, 308.15 K
assay endpoint: solubility (mole fraction)
Lab note: jot down the number only; don't add units.

Query: Sample Cc1c(OCC(F)(F)F)ccnc1CS(=O)c1nc2ccccc2[nH]1 (stereo unspecified) — what was its solubility (mole fraction)?
Reply: 0.0398

---

# experimental setup: in n-propanol, 308.15 K
assay endpoint: solubility (mole fraction)
Lab note: write the figure by itself, no unit.

Query: Name the recorded solubility (mole fraction) for Cc1c(OCC(F)(F)F)ccnc1CS(=O)c1nc2ccccc2[nH]1 (stereo unspecified) .
Reply: 0.0233

---

# experimental setup: in acetonitrile, 308.15 K
assay endpoint: solubility (mole fraction)
// keep it numeric: no unit symbol after the value

Query: Bench note: what solubility (mole fraction) did Cc1c(OCC(F)(F)F)ccnc1CS(=O)c1nc2ccccc2[nH]1 (stereo unspecified) show?
Reply: 0.0124

---

# experimental setup: in n-propanol, 303.15 K
assay endpoint: solubility (mole fraction)
Hey, just send me the number, nothing else.

Query: Need solubility (mole fraction), item Cc1c(OCC(F)(F)F)ccnc1CS(=O)c1nc2ccccc2[nH]1 (stereo unspecified)
Reply: 0.019

---

# experimental setup: in ethanol, 278.15 K
assay endpoint: solubility (mole fraction)
Just the number, please.

Query: Name the reported solubility (mole fraction) value associated with the compound Cc1c(OCC(F)(F)F)ccnc1CS(=O)c1nc2ccccc2[nH]1 (stereo unspecified)
Reply: 0.00976

---

# experimental setup: in methyl acetate, 293.15 K
assay endpoint: solubility (mole fraction)
# output: bare number, no unit

Query: Record request: solubility (mole fraction) value, item Cc1c(OCC(F)(F)F)ccnc1CS(=O)c1nc2ccccc2[nH]1 (stereo unspecified)
Reply: 0.0105

---

# experimental setup: in isopropanol, 318.15 K
assay endpoint: solubility (mole fraction)
API note: the answer field is a bare number with no unit suffix.

Query: Endpoint output: solubility (mole fraction) of Cc1c(OCC(F)(F)F)ccnc1CS(=O)c1nc2ccccc2[nH]1 (stereo unspecified) . Value?
Reply: 0.0204

---

# experimental setup: in n-propanol, 283.15 K
assay endpoint: solubility (mole fraction)
Answer with a bare number; do not write a unit.

Query: Which solubility (mole fraction) value is on record for Cc1c(OCC(F)(F)F)ccnc1CS(=O)c1nc2ccccc2[nH]1 (stereo unspecified) ?
Reply: 0.00912

---

# experimental setup: in isobutanol, 303.15 K
assay endpoint: solubility (mole fraction)

Query: Record request: solubility (mole fraction) value, item Cc1c(OCC(F)(F)F)ccnc1CS(=O)c1nc2ccccc2[nH]1 (stereo unspecified)
Reply: 0.012

---

# experimental setup: in ethyl acetate, 278.15 K
assay endpoint: solubility (mole fraction)
Give the value as a plain number.

Query: Please look up its solubility (mole fraction): Cc1c(OCC(F)(F)F)ccnc1CS(=O)c1nc2ccccc2[nH]1 (stereo unspecified)
Reply: 0.00415

---

# experimental setup: in n-propanol, 278.15 K
assay endpoint: solubility (mole fraction)
Please respond with just the number, no unit label.

Query: Any idea what its solubility (mole fraction) is? The molecule is Cc1c(OCC(F)(F)F)ccnc1CS(=O)c1nc2ccccc2[nH]1 (stereo unspecified)
Reply: 0.00803

---

# experimental setup: in isopropanol, 283.15 K
assay endpoint: solubility (mole fraction)
// keep it numeric: no unit symbol after the value

Query: Which solubility (mole fraction) is listed for Cc1c(OCC(F)(F)F)ccnc1CS(=O)c1nc2ccccc2[nH]1 (stereo unspecified) ?
Reply: 0.00469

---

# experimental setup: in ethanol, 283.15 K
assay endpoint: solubility (mole fraction)
Number only, no unit.

Query: Item Cc1c(OCC(F)(F)F)ccnc1CS(=O)c1nc2ccccc2[nH]1 (stereo unspecified) has what recorded solubility (mole fraction)?
Reply: 0.0114

---

# experimental setup: in methyl acetate, 313.15 K
assay endpoint: solubility (mole fraction)
// keep it numeric: no unit symbol after the value

Query: Need solubility (mole fraction) of Cc1c(OCC(F)(F)F)ccnc1CS(=O)c1nc2ccccc2[nH]1 (stereo unspecified) , thanks.
Reply: 0.0245

---

# experimental setup: in methyl acetate, 283.15 K
assay endpoint: solubility (mole fraction)

Query: Item under review: Cc1c(OCC(F)(F)F)ccnc1CS(=O)c1nc2ccccc2[nH]1 (stereo unspecified) . Reported solubility (mole fraction)?
Reply: 0.00729

---

# experimental setup: in n-propyl acetate, 298.15 K
assay endpoint: solubility (mole fraction)
Reply with the value as a number alone.

Query: Could you tell me which solubility (mole fraction) is on file for Cc1c(OCC(F)(F)F)ccnc1CS(=O)c1nc2ccccc2[nH]1 (stereo unspecified) ?
Reply: 0.00522

---

# experimental setup: in n-butanol, 318.15 K
assay endpoint: solubility (mole fraction)
Just the number, please.

Query: Sample Cc1c(OCC(F)(F)F)ccnc1CS(=O)c1nc2ccccc2[nH]1 (stereo unspecified) — what was its solubility (mole fraction)?
Reply: 0.0296

---

# experimental setup: in isopropanol, 313.15 K
assay endpoint: solubility (mole fraction)
API doc: respond with a numeric literal and nothing else, no unit.

Query: Consider the compound shown here: Cc1c(OCC(F)(F)F)ccnc1CS(=O)c1nc2ccccc2[nH]1 (stereo unspecified) What is its recorded solubility (mole fraction)?
Reply: 0.0168

---

# experimental setup: in n-butanol, 293.15 K
assay endpoint: solubility (mole fraction)
Just the number, please, no unit attached.

Query: Data request, read-out solubility (mole fraction), for Cc1c(OCC(F)(F)F)ccnc1CS(=O)c1nc2ccccc2[nH]1 (stereo unspecified)
Reply: 0.0105

---

# experimental setup: in ethanol, 308.15 K
assay endpoint: solubility (mole fraction)
Please reply with the number alone, leaving off any unit.

Query: I am curious: what solubility (mole fraction) value has been reported for Cc1c(OCC(F)(F)F)ccnc1CS(=O)c1nc2ccccc2[nH]1 (stereo unspecified) ?
Reply: 0.0327

---

# experimental setup: in n-butanol, 298.15 K
assay endpoint: solubility (mole fraction)
// return a plain number; no unit text

Query: // query solubility (mole fraction) value for entry Cc1c(OCC(F)(F)F)ccnc1CS(=O)c1nc2ccccc2[nH]1 (stereo unspecified)
Reply: 0.0127

---

# experimental setup: in n-butyl acetate, 288.15 K
assay endpoint: solubility (mole fraction)
Give the value as a plain number.

Query: Fill blank: measured solubility (mole fraction) of the compound Cc1c(OCC(F)(F)F)ccnc1CS(=O)c1nc2ccccc2[nH]1 (stereo unspecified) is ____.
Reply: 0.00259

---

# experimental setup: in n-propyl acetate, 293.15 K
assay endpoint: solubility (mole fraction)
Form rule: numeric answer, no unit written next to it.

Query: Item under review: Cc1c(OCC(F)(F)F)ccnc1CS(=O)c1nc2ccccc2[nH]1 (stereo unspecified) . Reported solubility (mole fraction)?
Reply: 0.00417

---

# experimental setup: in isobutanol, 283.15 K
assay endpoint: solubility (mole fraction)
Answer with a number only.

Query: Returns the measured solubility (mole fraction) for the input compound. Input: Cc1c(OCC(F)(F)F)ccnc1CS(=O)c1nc2ccccc2[nH]1 (stereo unspecified)
Reply: 0.00534

---

# experimental setup: in acetone, 318.15 K
assay endpoint: solubility (mole fraction)
Format: numeric value only, no unit, no commentary.

Query: What value of measured solubility (mole fraction) is listed for Cc1c(OCC(F)(F)F)ccnc1CS(=O)c1nc2ccccc2[nH]1 (stereo unspecified) ?
Reply: 0.053

---

# experimental setup: in n-butyl acetate, 313.15 K
assay endpoint: solubility (mole fraction)
Just the number, please.

Query: If you can, please state the reported solubility (mole fraction) value of Cc1c(OCC(F)(F)F)ccnc1CS(=O)c1nc2ccccc2[nH]1 (stereo unspecified) .
Reply: 0.00785

---

# experimental setup: in acetone, 303.15 K
assay endpoint: solubility (mole fraction)
Number, no unit, nothing else.

Query: Recorded solubility (mole fraction) of Cc1c(OCC(F)(F)F)ccnc1CS(=O)c1nc2ccccc2[nH]1 (stereo unspecified) , please.
Reply: 0.0337

---

# experimental setup: in acetone, 283.15 K
assay endpoint: solubility (mole fraction)

Query: Given the compound Cc1c(OCC(F)(F)F)ccnc1CS(=O)c1nc2ccccc2[nH]1 (stereo unspecified) , what is its reported solubility (mole fraction)?
Reply: 0.0197

---

# experimental setup: in methyl acetate, 288.15 K
assay endpoint: solubility (mole fraction)

Query: Form field: reported solubility (mole fraction) of Cc1c(OCC(F)(F)F)ccnc1CS(=O)c1nc2ccccc2[nH]1 (stereo unspecified)
Reply: 0.00849

---

# experimental setup: in ethyl acetate, 298.15 K
assay endpoint: solubility (mole fraction)

Query: Can you look up the measured solubility (mole fraction) of Cc1c(OCC(F)(F)F)ccnc1CS(=O)c1nc2ccccc2[nH]1 (stereo unspecified) for me?
Reply: 0.00962
